# Measured on: Met (Homo sapiens (Human), UniProt P08581)
# Sequence (P08581 25-1390): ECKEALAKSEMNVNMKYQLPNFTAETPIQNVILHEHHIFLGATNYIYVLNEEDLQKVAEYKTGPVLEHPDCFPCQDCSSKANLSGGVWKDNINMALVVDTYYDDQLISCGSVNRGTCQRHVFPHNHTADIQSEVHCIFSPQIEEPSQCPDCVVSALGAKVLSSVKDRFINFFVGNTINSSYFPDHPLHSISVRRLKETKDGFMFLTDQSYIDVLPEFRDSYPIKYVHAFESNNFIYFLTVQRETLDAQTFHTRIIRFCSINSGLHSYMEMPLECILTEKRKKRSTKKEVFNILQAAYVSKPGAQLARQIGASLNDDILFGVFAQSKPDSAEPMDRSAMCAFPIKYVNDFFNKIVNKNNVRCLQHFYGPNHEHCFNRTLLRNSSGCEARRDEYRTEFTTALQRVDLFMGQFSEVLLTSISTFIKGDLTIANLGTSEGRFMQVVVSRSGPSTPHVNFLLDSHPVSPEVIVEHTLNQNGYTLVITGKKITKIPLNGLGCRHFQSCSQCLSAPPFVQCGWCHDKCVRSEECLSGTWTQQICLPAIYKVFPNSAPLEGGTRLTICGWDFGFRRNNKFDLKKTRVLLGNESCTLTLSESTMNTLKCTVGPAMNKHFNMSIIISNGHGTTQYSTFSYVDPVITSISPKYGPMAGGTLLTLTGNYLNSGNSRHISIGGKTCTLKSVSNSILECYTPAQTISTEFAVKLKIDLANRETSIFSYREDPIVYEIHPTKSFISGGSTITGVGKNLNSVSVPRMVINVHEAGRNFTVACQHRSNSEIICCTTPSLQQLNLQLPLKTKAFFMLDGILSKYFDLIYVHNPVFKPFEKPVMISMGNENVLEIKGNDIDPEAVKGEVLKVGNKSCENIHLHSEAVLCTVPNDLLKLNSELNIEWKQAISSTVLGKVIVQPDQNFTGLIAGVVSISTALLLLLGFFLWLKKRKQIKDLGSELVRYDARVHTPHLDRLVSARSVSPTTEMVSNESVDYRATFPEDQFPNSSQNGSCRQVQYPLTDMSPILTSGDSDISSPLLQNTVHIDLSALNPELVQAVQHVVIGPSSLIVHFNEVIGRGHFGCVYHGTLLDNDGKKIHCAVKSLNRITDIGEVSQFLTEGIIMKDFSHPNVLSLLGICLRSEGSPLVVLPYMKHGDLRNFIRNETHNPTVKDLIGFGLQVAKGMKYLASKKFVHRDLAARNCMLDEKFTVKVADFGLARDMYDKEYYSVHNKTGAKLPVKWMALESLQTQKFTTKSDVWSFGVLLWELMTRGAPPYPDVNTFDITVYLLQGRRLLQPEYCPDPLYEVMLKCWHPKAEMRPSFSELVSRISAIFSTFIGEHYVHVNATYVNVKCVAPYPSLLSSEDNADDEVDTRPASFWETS
# Measurement protocol: Met autophosphorylation ELISA in PC-3 cells
# Type: cell-based
# Study conditions: cellular, HGF stimulated, read-out: c-Met IC50
pIC50: −log10 of the molar value.
Measured parameter: pIC50

[
  {
    "Molecule": "COc1cc2nccc(Oc3ccc(NC(=O)C4(C(=O)Nc5ccc(F)cc5)CC4)cc3)c2cc1-c1cccc(C#N)c1F [Compound 175]",
    "Data value": "7.00 to 8.00"
  },
  {
    "Molecule": "COc1cc2nccc(Oc3ccc(NC(=O)C4(C(=O)Nc5ccc(F)cc5)CC4)cc3)c2cc1C(=O)NOCC(O)CO (single isomer, unassigned) [Compound 30]",
    "Data value": "6.52 to 7.00"
  },
  {
    "Molecule": "NC(=O)c1cc2c(Oc3ccc(NC(=O)C4(C(=O)Nc5ccc(F)cc5)CC4)cc3)ccnc2cc1F [Compound 67]",
    "Data value": "6.52 to 7.00"
  },
  {
    "Molecule": "COc1cc2nccc(Oc3ccc(NC(=O)C4(C(=O)Nc5ccc(F)cc5)CC4)cc3)c2cc1N1CCC1 [Compound 198]",
    "Data value": "7.00 to 8.00"
  },
  {
    "Molecule": "CNc1cc2nccc(Oc3ccc(NC(=O)C4(C(=O)Nc5ccc(F)cc5)CC4)cc3)c2cc1C(N)=O [Compound 82]",
    "Data value": "7.00 to 8.00"
  },
  {
    "Molecule": "O=C(NOC[C@@H](O)CO)c1ccc2c(Oc3ccc(NC(=O)C4(C(=O)Nc5ccc(F)cc5)CC4)cc3)ccnc2c1 [Compound 170]",
    "Data value": "< 6.52"
  },
  {
    "Molecule": "CNC(=O)c1cc2c(Oc3ccc(NC(=O)C4(C(=O)Nc5ccc(F)cc5)CC4)cc3)ccnc2cc1OC [Compound 8]",
    "Data value": "7.00 to 8.00"
  }
]
